List of PBM binding z-score values.
Tested on: PPARg:RXRa IVT, anti-PPARg (NR concentration 270 nM, RXRa partner concentration 90 nM)
Test: PBM binding z-score (relative to random genomic background probes); higher = stronger binding; sequences stand for … in GC…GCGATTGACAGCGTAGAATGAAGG
parameter: PBM binding z-score

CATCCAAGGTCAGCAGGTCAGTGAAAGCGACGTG ... 4.02
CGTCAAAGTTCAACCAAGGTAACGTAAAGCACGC ... 2.22
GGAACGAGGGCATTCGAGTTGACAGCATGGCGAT ... 2.46
TCTTGTAGATCAGCATGTTAAGAAAGCTGGCCAA ... -0.0359
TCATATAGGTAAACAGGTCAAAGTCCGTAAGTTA ... 5.48
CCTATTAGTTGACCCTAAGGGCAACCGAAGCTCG ... 1.82
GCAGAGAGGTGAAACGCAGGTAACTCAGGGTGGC ... 1.97
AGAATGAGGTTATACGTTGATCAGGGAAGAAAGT ... 2.33
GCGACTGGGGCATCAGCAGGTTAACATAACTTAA ... 3.26
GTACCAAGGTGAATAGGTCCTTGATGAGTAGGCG ... 1.9
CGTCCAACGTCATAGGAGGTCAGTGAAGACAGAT ... 1.08
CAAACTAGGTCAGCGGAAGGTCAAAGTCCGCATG ... 8.08
TCTATTAGTTGAAGGGCAACCGACGAGTCCGTTT ... 0.776
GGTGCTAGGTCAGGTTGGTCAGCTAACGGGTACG ... 3.08
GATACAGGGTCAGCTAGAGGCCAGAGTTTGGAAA ... 2.54
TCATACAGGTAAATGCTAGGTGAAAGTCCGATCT ... 1.46
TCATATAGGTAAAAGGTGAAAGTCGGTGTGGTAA ... 5.59
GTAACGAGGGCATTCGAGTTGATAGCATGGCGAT ... 2.66
TCTTGCAGATCAAGCAGGTTAAGAAAGCCTGAGT ... -0.312
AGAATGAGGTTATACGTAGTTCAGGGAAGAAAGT ... 2.53
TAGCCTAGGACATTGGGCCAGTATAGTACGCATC ... 0.309
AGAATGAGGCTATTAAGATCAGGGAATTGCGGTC ... 0.484
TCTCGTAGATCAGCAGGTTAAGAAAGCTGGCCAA ... -0.478
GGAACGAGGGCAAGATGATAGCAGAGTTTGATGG ... 2.4
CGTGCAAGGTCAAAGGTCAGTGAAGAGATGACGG ... 5.94
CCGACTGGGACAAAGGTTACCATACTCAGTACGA ... 5.21
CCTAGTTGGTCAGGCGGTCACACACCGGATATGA ... 0.945
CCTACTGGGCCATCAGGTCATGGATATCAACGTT ... 5.33
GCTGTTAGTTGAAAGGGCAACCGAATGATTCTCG ... 0.541
GATACAGGGTCAGTTAGAGGCCAGAGTATGGAAA ... 1.82
